Hey, just so you know, these numbers are from patent US12071411B2.

TESTED TARGET: HIF-2α (Homo sapiens)
TEST PROTOCOL: HIF-2α Luciferase Reporter Assay (serum), HRE-luciferase 786-0 cells in 100% human serum
Assay type: cell-based
CONDITIONS USED: 100% human serum, 786-0 reporter cells, overnight incubation; read-out: Serum Potency
Protocol: Generation of HIF-2α Luciferase 786-0 Cell Line: Stable cell lines were generated by transducing 786-0 cells (ATCC, CRL-1932) with Cignal Lenti HIF Luc Reporter lentivirus (CLS-007L, Qiagen) according to the manufacturer's guidelines. In brief, 0.3×10^6 786-0 cells were transduced with lentivirus at a multiplicity of infection (MOI) of 25 for 24 hours. […]
ASSAY ENDPOINT: IC50

O[C@H]1c2c(C(F)(F)F)nn(CCC3CC3(F)F)c2CC1(F)F (some centres unmarked) :: 100 to 1000 nM

Per the reported HIF-2α (Homo sapiens) data, `O[C@H]1c2c(C(F)(F)F)nn([C@H]3CCC[C@H](C(F)(F)F)C3)c2CC1(F)F` has IC50 of > 1000 nM

Per the reported HIF-2α (Homo sapiens) data, O[C@H]1c2c(C(F)(F)F)nn([C@@H]3CC[C@@H](F)[C@@H](F)C3)c2CC1(F)F (single isomer, unassigned) [72/73 DIAST-1] has IC50 of 100 to 1000 nM

Per the reported HIF-2α (Homo sapiens) data, `O[C@H]1c2c(C(F)(F)F)nn([C@H]3C[C@@H](COC(F)F)C3)c2CC1(F)F` has IC50 of > 1000 nM

Per the reported HIF-2α (Homo sapiens) data, CC(C#N)CCn1nc(C(F)(F)F)c2c1CC(F)(F)[C@H]2O (some centres unmarked) has IC50 of 100 to 1000 nM

Per the reported HIF-2α (Homo sapiens) data, O[C@H]1c2c(C(F)(F)F)nn(C3COCC(F)(F)C3)c2CC1(F)F (some centres unmarked) has IC50 of > 1000 nM

Per the reported HIF-2α (Homo sapiens) data, O[C@H]1c2c(C(F)(F)F)nn(CCCC(F)(F)F)c2[C@@H](F)C1(F)F (single isomer, unassigned) has IC50 of > 1000 nM

Per the reported HIF-2α (Homo sapiens) data, `O[C@H]1c2c(C(F)(F)F)nn([C@@H]3C[C@@H](F)[C@@H](F)[C@@H](F)C3)c2[C@H](F)[C@H]1F` has IC50 of > 1000 nM

###

TESTED TARGET: HIF-2α (Homo sapiens, UniProt Q99814)
Sequence (Q99814 whole entry): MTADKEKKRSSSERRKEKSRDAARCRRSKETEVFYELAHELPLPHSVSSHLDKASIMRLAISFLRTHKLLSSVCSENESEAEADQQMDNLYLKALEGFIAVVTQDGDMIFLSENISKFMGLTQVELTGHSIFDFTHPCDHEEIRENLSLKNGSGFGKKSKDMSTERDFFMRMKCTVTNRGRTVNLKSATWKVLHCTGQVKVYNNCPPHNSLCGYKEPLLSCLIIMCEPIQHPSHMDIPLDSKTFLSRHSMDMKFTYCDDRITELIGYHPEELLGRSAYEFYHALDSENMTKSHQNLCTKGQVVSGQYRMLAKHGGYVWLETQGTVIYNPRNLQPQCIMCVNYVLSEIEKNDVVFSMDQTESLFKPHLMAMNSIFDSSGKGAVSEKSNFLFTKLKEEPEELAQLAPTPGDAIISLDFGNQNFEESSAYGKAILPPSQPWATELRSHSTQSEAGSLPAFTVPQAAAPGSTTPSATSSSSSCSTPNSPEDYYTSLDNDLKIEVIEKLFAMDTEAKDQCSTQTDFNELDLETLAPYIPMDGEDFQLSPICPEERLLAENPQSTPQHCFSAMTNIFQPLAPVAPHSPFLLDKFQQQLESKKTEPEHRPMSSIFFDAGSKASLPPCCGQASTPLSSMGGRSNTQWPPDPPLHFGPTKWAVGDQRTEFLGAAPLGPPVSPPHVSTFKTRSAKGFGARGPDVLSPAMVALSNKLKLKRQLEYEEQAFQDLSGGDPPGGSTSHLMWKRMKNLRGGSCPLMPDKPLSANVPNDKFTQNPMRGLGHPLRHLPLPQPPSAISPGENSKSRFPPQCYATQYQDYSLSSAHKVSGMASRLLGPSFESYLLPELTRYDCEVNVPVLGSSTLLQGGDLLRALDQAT
TEST PROTOCOL: HIF-2α Luciferase Reporter Assay (serum), HRE-luciferase 786-0 cells in 100% human serum
Format: cell-based
CONDITIONS USED: ratio of IC50 in 100% serum to IC50 in serum free conditions; approximate
Serum Shift (approximate): recorded values
Would you mind answering with just the numeric figure?

O[C@H]1c2c(C(F)(F)F)nn(CCCC(F)(F)F)c2[C@@H](F)C1(F)F (single isomer, unassigned) :: 12

In plain terms, O[C@H]1c2c(C(F)(F)F)nn(C3CCC[C@H](OC(F)F)C3)c2CC1(F)F (mixture of isomers) has a documented Serum Shift (approximate) of 19

In plain terms, CCC(CCn1nc(C(F)(F)F)c2c1CCC(F)(F)[C@H]2O)C(F)(F)F (stereo partly shown) has a documented Serum Shift (approximate) of 17

In plain terms, `O[C@H]1c2c(C(F)(F)F)nn(CCCOC(F)(F)F)c2C[C@@H]1F` has a documented Serum Shift (approximate) of 4
